# testSummary: Oral bioavailability in Sprague-Dawley rat at 15 mg/kg and measured upto 48 hrs by LC-MS/MS analysis
# Format: ADME, organism-based
# testContext: in vivo
measurementLabel: bioavailability (%)

Nc1nc(-c2cn(Cc3c(F)cccc3Cl)c3ncccc23)ncc1C1CC1    21.7

====

# testSummary: Acute toxicity in po dosed BALB/c mouse assessed as maximum tolerate dose
# Assay type: organism-based
# testContext: in vivo
Below, each entry is listed alongside its reported MTD.
measurementLabel: MTD

Fc1cccc(Cl)c1Cn1cc(-c2ncc(C3CC3)cn2)c2cccnc21    1000 mg/kg
Nc1nc(-c2cn(Cc3c(F)cccc3Cl)c3ncccc23)ncc1C1CC1    600 mg/kg

Attribution: ChEMBL document CHEMBL5390254
